target: CRF1 receptors (Homo sapiens, UniProt P34998); construct: endogenous in cells; host or cells: IMR-32 cells, transformed with 2.5 µM 5'-bromo-2'-deoxyuridine for 10 days; membrane preparation; assay: CRF1 receptor radioligand binding assay ([125I]-oCRF competition, IMR-32 cell membranes); conditions: IMR-32 cell membranes, [125I]-oCRF 100 pM; read-out: Ki (CRF-1R)
Sequence (P34998 24-415): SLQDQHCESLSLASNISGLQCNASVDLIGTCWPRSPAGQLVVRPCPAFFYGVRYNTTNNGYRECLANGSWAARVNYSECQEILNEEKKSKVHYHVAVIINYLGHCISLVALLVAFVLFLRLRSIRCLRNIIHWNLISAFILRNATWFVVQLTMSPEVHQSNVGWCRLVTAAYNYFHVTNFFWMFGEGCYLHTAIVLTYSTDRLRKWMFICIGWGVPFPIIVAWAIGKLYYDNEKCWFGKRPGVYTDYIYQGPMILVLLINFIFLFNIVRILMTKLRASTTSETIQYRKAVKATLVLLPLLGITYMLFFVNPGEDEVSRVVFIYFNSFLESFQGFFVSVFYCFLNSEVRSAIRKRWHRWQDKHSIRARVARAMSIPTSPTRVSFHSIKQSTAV
reported_endpoint: Ki

- substance_smiles: "CCCN(CCc1ccccc1)C(=O)c1c(CC)nc2n1CCN2c1c(C)cc(C)cc1C"
  value: "< 1 µM"

// molecule CCCN(Cc1c(C)nc2n(-c3c(C)cc(C)cc3C)c3ccccc3n12)CC1CC1 , assay CRF1 receptors (Homo sapiens, UniProt P34998), Ki value: < 0.1 µM

Record for CCN(Cc1c(C(F)(F)F)nc2n(-c3c(C)cc(C)cc3C)c3ncccc3n12)CC1CC1 under target or system CRF1 receptors (Homo sapiens, UniProt P34998): Ki reported as < 1 µM

Here CCN(CCC1CC1)Cc1c(C(F)(F)F)nc2n(-c3c(C)cc(C)cc3C)c3ccccc3n12 was tested on CRF1 receptors (Homo sapiens, UniProt P34998), and its Ki came to < 10 µM

* * *

target: CRF1 receptors (Homo sapiens, UniProt P34998); construct: endogenous in cells; host or cells: IMR-32 cells, transformed with 2.5 µM 5'-bromo-2'-deoxyuridine for 10 days; membrane preparation; assay: CRF1 receptor radioligand binding assay ([125I]-oCRF competition, IMR-32 cell membranes); conditions: IMR-32 cell membranes, [125I]-oCRF 100 pM; read-out: Ki (CRF-1R)
reported_endpoint: Ki

// known answers, use as guide
- substance_smiles: "CC(C)c1ccc(-n2c3ccccc3n3c(CN(CCc4ccccc4)CC(F)(F)F)c(C(F)(F)F)nc23)c(Br)c1"
  Ki: "< 10000 nM"
- substance_smiles: "CCCN(CCc1ccccc1)C(=O)c1c(C)nc2n1CCCN2c1c(C)cc(C)cc1C"
  Ki: "< 10000 nM"
- substance_smiles: "CCCCN(Cc1ccccc1)Cc1c(C(F)(F)F)nc2n1CCCN2c1c(C)cc(C)cc1Cl"
  Ki: "< 1000 nM"

Record C=CCN(CCC)Cc1c(C(F)(F)F)nc2n(-c3ccc(C(C)C)cc3Br)c3ccccc3n12 ; system CRF1 receptors (Homo sapiens, UniProt P34998); Ki = < 1000 nM

Given the compound CCCN(CC1CC1)C(=O)c1c(CC)nc2n1CCN2c1c(C)cc(C)cc1Cl and test system CRF1 receptors (Homo sapiens, UniProt P34998), the measured Ki is < 100 nM

Assay CRF1 receptors (Homo sapiens, UniProt P34998), sample CCCCN(CC)Cc1c(C(F)(F)F)nc2n1CCCN2c1c(C)cc(C)cc1Cl , Ki read: < 1000 nM

* * *

target: CRF1 receptors (Homo sapiens); construct: endogenous in cells; host or cells: IMR-32 cells, transformed with 2.5 µM 5'-bromo-2'-deoxyuridine for 10 days; membrane preparation; assay: CRF1 receptor radioligand binding assay ([125I]-oCRF competition, IMR-32 cell membranes); conditions: IMR-32 cell membranes, [125I]-oCRF 100 pM; read-out: Ki (CRF-1R)
# Ki listing for each entry below

Field: example entries. Status: answers known.
- substance_smiles: "CCCN(CC(F)(F)F)C(=O)c1c(CC)nc2n1CCN2c1c(C)cc(Cl)cc1Cl"
  Ki: "< 100 nM"
- substance_smiles: "CCCN(CC1CC1)C(=O)c1c(CC)nc2n1CCN2c1c(C)cc(C)cc1Br"
  Ki: "< 10000 nM"

Recorded Ki (compound Cc1cc(C)c(N2CCCn3c2nc(C(F)(F)F)c3CN(CCC(F)(F)F)Cc2ccccc2)c(Cl)c1 ): < 1000 nM

Briefly, Ki measured for CCCN(CC1CC1)C(=O)c1c(CC)nc2n1CCCN2c1c(C)cc(C)cc1C : < 10000 nM

Measured values drawn from patent US7125990B2 for this set.
